All figures here come from ChEMBL document CHEMBL6115000.

As shown below, each of these molecules has a reported Activity value.
Target entity: von Hippel-Lindau disease tumor suppressor/Lysine-specific demethylase 4A (Homo sapiens, UniProt O75164+P40337)
Sequence (O75164 2-1064 limits assumed): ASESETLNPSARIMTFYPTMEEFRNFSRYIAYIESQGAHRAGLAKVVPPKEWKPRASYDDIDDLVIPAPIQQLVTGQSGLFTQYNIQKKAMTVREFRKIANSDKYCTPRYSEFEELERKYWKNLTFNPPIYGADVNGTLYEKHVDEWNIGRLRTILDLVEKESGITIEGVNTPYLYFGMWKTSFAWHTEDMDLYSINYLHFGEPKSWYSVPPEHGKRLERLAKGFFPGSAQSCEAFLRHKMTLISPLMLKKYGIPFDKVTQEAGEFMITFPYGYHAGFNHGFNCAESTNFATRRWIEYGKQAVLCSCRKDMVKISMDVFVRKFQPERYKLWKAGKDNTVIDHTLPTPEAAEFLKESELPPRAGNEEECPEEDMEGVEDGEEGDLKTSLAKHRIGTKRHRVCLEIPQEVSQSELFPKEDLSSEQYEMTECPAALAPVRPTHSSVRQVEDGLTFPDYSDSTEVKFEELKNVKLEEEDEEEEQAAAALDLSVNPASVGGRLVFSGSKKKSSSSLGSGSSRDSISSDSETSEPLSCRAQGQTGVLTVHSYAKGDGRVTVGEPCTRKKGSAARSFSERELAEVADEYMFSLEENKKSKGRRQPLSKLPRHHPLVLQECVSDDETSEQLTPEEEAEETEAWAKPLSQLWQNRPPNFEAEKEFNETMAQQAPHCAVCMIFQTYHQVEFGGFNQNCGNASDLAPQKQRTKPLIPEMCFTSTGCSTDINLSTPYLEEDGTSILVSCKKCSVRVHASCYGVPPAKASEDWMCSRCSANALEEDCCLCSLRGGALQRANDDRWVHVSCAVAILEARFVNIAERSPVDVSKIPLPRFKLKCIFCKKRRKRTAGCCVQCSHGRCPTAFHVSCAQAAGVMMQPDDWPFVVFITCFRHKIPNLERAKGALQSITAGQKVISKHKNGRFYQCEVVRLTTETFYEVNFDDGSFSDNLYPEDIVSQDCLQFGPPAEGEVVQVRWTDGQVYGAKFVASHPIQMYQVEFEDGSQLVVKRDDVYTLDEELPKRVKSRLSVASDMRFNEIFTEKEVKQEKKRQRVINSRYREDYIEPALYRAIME
Sequence (P40337 whole entry partner): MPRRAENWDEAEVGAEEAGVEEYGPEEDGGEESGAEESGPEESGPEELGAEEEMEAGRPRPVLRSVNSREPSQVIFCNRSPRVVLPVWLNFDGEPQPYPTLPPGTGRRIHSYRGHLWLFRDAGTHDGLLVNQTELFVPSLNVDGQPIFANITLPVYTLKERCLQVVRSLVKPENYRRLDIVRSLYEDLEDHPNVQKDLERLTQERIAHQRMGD
Test: PROTAC activity at VHL/KDM4A in human KYSE-150 cells assessed as induction of KDM4A degradation at 0.1 uM incubated for 12 hrs by Western blot analysis relative to control
Format: cell-based
Measurement conditions: KYSE-150 cell line
Could you give me the number in %? Just the number is fine.

Cc1ncsc1-c1ccc([C@H](C)NC(=O)[C@@H]2C[C@@H](O)CN2C(=O)[C@@H](NC(=O)CCCCCCOc2ccc(N(C)c3ccc4c(c3)OCC[C@H]4CNc3cnccc3C(=O)O)cc2)C(C)(C)C)cc1    48.5

Task: Fill in: Activity of `Cc1ncsc1-c1ccc([C@H](C)NC(=O)[C@@H]2C[C@@H](O)CN2C(=O)[C@@H](NC(=O)CCOCCOCCOCCOc2ccc(N(C)c3ccc4c(c3)OCC[C@H]4CNc3cnccc3C(=O)O)cc2)C(C)(C)C)cc1` is ___
Result: -2.5

Task: Now the same for `Cc1ncsc1-c1ccc([C@H](C)NC(=O)[C@@H]2C[C@@H](O)CN2C(=O)[C@@H](NC(=O)c2ccc(C#CCCCCOc3ccc(N(C)c4ccc5c(c4)OCC[C@H]5CNc4cnccc4C(=O)O)cc3)cc2)C(C)(C)C)cc1`
Result: 38.7

---

Target entity: von Hippel-Lindau disease tumor suppressor/Lysine-specific demethylase 4A (Homo sapiens, UniProt O75164+P40337)
Test: PROTAC activity at VHL/KDM4A in human KYSE-150 cells assessed as induction of KDM4A degradation at 1 uM incubated for 12 hrs by Western blot analysis relative to control
Format: cell-based
Measurement conditions: KYSE-150 cell line
Kindly return met if reported Activity is no lower than 20%; return not met if it is lower.

As a guide, the following entries are already answered.
Cc1ncsc1-c1ccc([C@H](C)NC(=O)[C@@H]2C[C@@H](O)CN2C(=O)[C@@H](NC(=O)CCOCCOCCOCCOc2ccc(N(C)c3ccc4c(c3)OCC[C@H]4CNc3cnccc3C(=O)O)cc2)C(C)(C)C)cc1    not met
Cc1ncsc1-c1ccc([C@H](C)NC(=O)[C@@H]2C[C@@H](O)CN2C(=O)[C@@H](NC(=O)CCCCCCCCCCCOc2ccc(N(C)c3ccc4c(c3)OCC[C@H]4CNc3cnccc3C(=O)O)cc2)C(C)(C)C)cc1    met
Cc1ncsc1-c1ccc([C@H](C)NC(=O)[C@@H]2C[C@@H](O)CN2C(=O)[C@@H](NC(=O)c2ccc(CCCCOc3ccc(N(C)c4ccc5c(c4)OCC[C@H]5CNc4cnccc4C(=O)O)cc3)cc2)C(C)(C)C)cc1    met
Cc1ncsc1-c1ccc([C@H](C)NC(=O)[C@@H]2C[C@@H](O)CN2C(=O)[C@@H](NC(=O)c2ccc(CCCCCOc3ccc(N(C)c4ccc5c(c4)OCC[C@H]5CNc4cnccc4C(=O)O)cc3)cc2)C(C)(C)C)cc1    met

As a next step, examine the compound that follows.
Task: Given `Cc1ncsc1-c1ccc([C@H](C)NC(=O)[C@@H]2C[C@@H](O)CN2C(=O)[C@@H](NC(=O)C2CCN(C(=O)CCCCCOc3ccc(N(C)c4ccc5c(c4)OCC[C@H]5CNc4cnccc4C(=O)O)cc3)CC2)C(C)(C)C)cc1` , state whether its Activity is at least 20%.
Result: not met

---

Target entity: von Hippel-Lindau disease tumor suppressor/Lysine-specific demethylase 4A (Homo sapiens, UniProt O75164+P40337)
Test: PROTAC activity at VHL/KDM4A in human KYSE-150 cells assessed as induction of KDM4A degradation at 1 uM incubated for 12 hrs by Western blot analysis relative to control
Assay type: cell-based
Measurement conditions: KYSE-150 cell line
As shown below, each of these molecules has a reported Activity value.
Could you give me the number in %? Just the number is fine.

Cc1ncsc1-c1ccc([C@H](C)NC(=O)[C@@H]2C[C@@H](O)CN2C(=O)[C@@H](NC(=O)CCCCCOc2ccc(N(C)c3ccc4c(c3)OCC[C@H]4CNc3cnccc3C(=O)O)cc2)C(C)(C)C)cc1    14.1
Cc1ncsc1-c1ccc([C@H](C)NC(=O)[C@@H]2C[C@@H](O)CN2C(=O)[C@@H](NC(=O)CCCCCCCCOc2ccc(N(C)c3ccc4c(c3)OCC[C@H]4CNc3cnccc3C(=O)O)cc2)C(C)(C)C)cc1    53.9

Task: Fill in: Activity of `Cc1ncsc1-c1ccc([C@H](C)NC(=O)[C@@H]2C[C@@H](O)CN2C(=O)[C@@H](NC(=O)c2ccc(C#CCCCCOc3ccc(N(C)c4ccc5c(c4)OCC[C@H]5CNc4cnccc4C(=O)O)cc3)cc2)C(C)(C)C)cc1` is ___
Result: 47.3
